# test.details: Plasma protein binding, equilibrium dialysis, human plasma
# Format: in vitro ADME
# condition.summary: undiluted plasma, human plasma protein binding, read-out: PPB (hu) (converted)
readout.kind: fraction unbound at 4 h, 100 µM

The following compounds have reported results that may help.
compound: O=P(O)(O)CP(=O)(O)OC[C@H]1O[C@@H](n2ccc3c(-c4cccc5ccccc45)ncnc32)[C@H](O)[C@@H]1O
readout.kind: fraction unbound at 4 h, 100 µM
assay.result: 0.086
//
compound: Nc1nc(-c2cc3ccccc3o2)c2ccn([C@@H]3O[C@H](COP(=O)(O)CP(=O)(O)O)[C@@H](O)[C@H]3O)c2n1 [11C.8]
readout.kind: fraction unbound at 4 h, 100 µM
assay.result: 0.058
//
compound: Nc1nc(-c2cccc3ccccc23)c2ccn([C@@H]3O[C@H](COP(=O)(O)CP(=O)(O)O)[C@@H](O)[C@H]3O)c2n1 [11C.6]
readout.kind: fraction unbound at 4 h, 100 µM
assay.result: 0.067

P: O=P(O)(O)CP(=O)(O)OC[C@H]1O[C@@H](n2ccc3c(-c4cnc5ccccc5c4)ncnc32)[C@H](O)[C@@H]1O
Q: O=P(O)(O)CP(=O)(O)OC[C@H]1O[C@@H](n2ccc3c(-c4ccc5cc(O)ccc5c4)nc(Cl)nc32)[C@H](O)[C@@H]1O
R: O=P(O)(O)CP(=O)(O)OC[C@H]1O[C@@H](n2ccc3c(-c4cc5ccccc5o4)nc(Cl)nc32)[C@H](O)[C@@H]1O
Write the entries in order, lowest recorded fraction unbound at 4 h, 100 µM first. Labels, ranked as asked.
R, P, Q

###

# test.details: Plasma protein binding, mouse plasma
# Format: in vitro ADME
# condition.summary: mouse, plasma, Tables 2 and 4; mouse plasma; read-out: fup, fraction unbound in mouse plasma
readout.kind: fraction unbound at 4 h, 100 µM

The following compounds have reported results that may help.
compound: O=P(O)(O)CP(=O)(O)OC[C@H]1O[C@@H](n2ccc3c(-c4ccc5ccccc5c4)nc(Cl)nc32)[C@H](O)[C@@H]1O
assay.result: 0.11
//
compound: O=P(O)(O)CP(=O)(O)OC[C@H]1O[C@@H](n2ccc3c(-c4ccc(F)c5ccccc45)nc(Cl)nc32)[C@H](O)[C@@H]1O
assay.result: 0.23

1: COC(=O)c1ccc2cc(-c3nc(Cl)nc4c3ccn4[C@@H]3O[C@H](COP(=O)(O)CP(=O)(O)O)[C@@H](O)[C@H]3O)ccc2c1
2: C[C@H](Nc1cc(Cl)nc2c1cnn2[C@@H]1O[C@H](COP(=O)(O)CP(=O)(O)O)[C@@H](O)[C@H]1O)c1ccccc1F [AB680, quemliclustat, reference compound]
Which shows the larger fraction unbound at 4 h, 100 µM value: 1 or 2 ? Provide the label of your selected option as the answer.
1
(1: 0.23, 2: 0.1)

1: O=P(O)(O)CP(=O)(O)OC[C@H]1O[C@@H](n2ccc3c(-c4ccc5cc(O)ccc5c4)nc(Cl)nc32)[C@H](O)[C@@H]1O
2: Nc1nc(-c2cccc3ccccc23)c2ccn([C@@H]3O[C@H](COP(=O)(O)CP(=O)(O)O)[C@@H](O)[C@H]3O)c2n1 [11C.6]
Which shows the larger fraction unbound at 4 h, 100 µM value: 1 or 2 ? Provide the label of your selected option as the answer.
2
(2: 0.56, 1: 0.2)
